studyTarget: T1, rhesus serum albumin (rhesus, UniProt Q28522 17-600)
T1 construct: also called RhSA
T1 sequence (Q28522 17-600 limits assumed): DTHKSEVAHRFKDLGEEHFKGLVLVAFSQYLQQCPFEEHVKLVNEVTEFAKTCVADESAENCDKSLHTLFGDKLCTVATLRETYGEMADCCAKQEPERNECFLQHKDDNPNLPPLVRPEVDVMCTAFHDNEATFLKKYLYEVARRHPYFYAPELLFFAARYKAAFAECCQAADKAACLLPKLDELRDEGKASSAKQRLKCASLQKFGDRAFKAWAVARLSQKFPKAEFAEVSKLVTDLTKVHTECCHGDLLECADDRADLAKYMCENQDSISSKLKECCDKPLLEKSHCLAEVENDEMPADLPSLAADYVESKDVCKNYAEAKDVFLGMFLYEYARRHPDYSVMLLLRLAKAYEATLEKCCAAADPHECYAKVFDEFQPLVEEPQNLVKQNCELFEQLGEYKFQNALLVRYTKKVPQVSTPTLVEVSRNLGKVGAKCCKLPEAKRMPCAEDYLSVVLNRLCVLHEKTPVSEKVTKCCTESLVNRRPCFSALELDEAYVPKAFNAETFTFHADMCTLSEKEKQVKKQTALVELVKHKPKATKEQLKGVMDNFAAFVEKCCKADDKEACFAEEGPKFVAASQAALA
method: SPR (Biacore), albumin immobilized on CM5 chip
propertyMeasured: koff (s⁻¹)
// note: answer is a bare numeric in s⁻¹

Solved cases below.
{"columns": ["binder", "koff (s⁻¹)"],
 "data": [
  ["SABA2.1 (designed binder, His6-tagged Adnectin core 2) MGVSDVPRDLEVVAATPTSLLISWPKYDKTGHYYRITYGETGGNSPVQEFTVPTRQTTATISGLKPGVDYTITVYAVSKDDYYPHEHRPISINYRTEIDKPSQHHHHHH", 0.000442],
  ["SABA3.1 (designed binder, His6-tagged Adnectin core 3) MGVSDVPRDLEVVAATPTSLLISWSNDGPGLSYYRITYGETGGNSPVQEFTVPSSQTTATISGLKPGVDYTITVYAVSYYTKKAYSAGPISINYRTEIDKPSQHHHHHH", 0.0337],
  ["SABA4.1 (designed binder, His6-tagged Adnectin core 4; has a scaffold mutation; the scaffold-perfect version is SABA5) MGVSDVPRDLEMVAATPTSLLISWEDDSYYSRYYRITYGETGGNSPVQEFTVPSDLYTATISGLKPGVDYTITVYAVTYDVTDLIMHEPISINYRTEIDKPSQHHHHHH", 0.00383]
]}

Consider the additional binder presented here.
Please give the measured koff for this binder: SABA1.1 (designed binder) MGVSDVPRDLEVVAATPTSLLISWHSYYEQNSYYRITYGETGGNSPVQEFTVPYSQTTATISGLKPGVDYTITVYAVYGSKYYYPISINYRTEIDKPSQHHHHHH
0.00545

The reported numbers originate from patent US20190203248A1.
